The origin of these recorded values is patent US20260209362A1.

Target: T1, biotinylated recombinant human IL-12Rβ2 (human, UniProt Q99665 24-622, random biotinylated)
T1 construct: Recombinant protein produced in-house, biotinylated; also called hIL-12RB2; human IL-12RB2
T1 sequence: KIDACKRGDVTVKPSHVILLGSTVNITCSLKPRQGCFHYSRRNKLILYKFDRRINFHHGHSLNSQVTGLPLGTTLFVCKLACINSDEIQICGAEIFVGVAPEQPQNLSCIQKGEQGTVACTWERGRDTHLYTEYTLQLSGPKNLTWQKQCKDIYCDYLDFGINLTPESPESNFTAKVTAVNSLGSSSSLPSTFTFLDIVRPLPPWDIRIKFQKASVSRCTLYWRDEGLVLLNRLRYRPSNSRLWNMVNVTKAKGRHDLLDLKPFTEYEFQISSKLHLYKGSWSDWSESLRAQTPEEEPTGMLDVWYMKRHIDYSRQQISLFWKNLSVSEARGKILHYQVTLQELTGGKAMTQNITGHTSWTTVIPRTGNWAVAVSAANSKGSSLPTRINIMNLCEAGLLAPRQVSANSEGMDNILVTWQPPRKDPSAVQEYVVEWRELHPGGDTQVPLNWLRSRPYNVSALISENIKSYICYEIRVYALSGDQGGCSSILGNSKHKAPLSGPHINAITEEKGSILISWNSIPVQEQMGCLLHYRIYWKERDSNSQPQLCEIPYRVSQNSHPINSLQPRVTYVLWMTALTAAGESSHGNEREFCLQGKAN
Assay: BLI (Octet), periplasmic extract on biotinylated hIL-12Rβ2 on streptavidin tips
Entries and their Response values follow.

binder: anti-IL-12Rβ2 VHH clone 21055 (VHH, not shown: small tags and cut ends, tested as periplasmic extract; also called 3CRHM20) VHH: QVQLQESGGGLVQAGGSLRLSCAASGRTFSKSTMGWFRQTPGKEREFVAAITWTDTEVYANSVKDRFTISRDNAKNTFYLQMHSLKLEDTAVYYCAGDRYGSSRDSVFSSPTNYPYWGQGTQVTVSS
Response: 1.18
--
binder: anti-IL-12Rβ2 VHH clone 21052 (VHH, not shown: small tags and cut ends, tested as periplasmic extract; also called 3CRHM12) VHH: QVQLQESGGGSVQAGGSLRLSCAVSGRTVSDYAMGWFRQAPGKEREFVAAMSSSETTVYPNSVKGRITISRDNAKNAVYLQMNALKPEDTAVYYCSMGPIVTFQGLARQNEYHYWGQGTQVTVSS
Response: 1.32
--
binder: anti-IL-12Rβ2 VHH clone 21058 (VHH, not shown: small tags and cut ends, tested as periplasmic extract; also called 3CRHM49) VHH: QVQLQESGGGLVQAGGSLRLSCAASGRTFSNYAMAWFRQAPGTEREFVAGLSGSGGDTAFYDNSVMGRFTISRDSAKNTMWLQINNLKPEDTAVYYCAAATHVVVSYGLVRRRGTYDYWGQGTQVTVSS
Response: 1.54
--
binder: anti-IL-12Rβ2 VHH clone 20389 (VHH, not shown: small tags and cut ends, tested as periplasmic extract; also called 3CRH73) VHH: QVQLQESGGGLVRAGGSLRLSCAASGHTFSNYVMGWFRQAPGKEREFVAAISWGGSNTYYADSVKGRFTISRDNAKNTVYLQMNSLKVEDTAVYYCAADRRFEGWNYYSMDYWGKGTQVTVSS
Response: 0.565
--
binder: anti-IL-12Rβ2 VHH clone 21062 (VHH, not shown: small tags and cut ends, tested as periplasmic extract; also called 3CRHM99) VHH: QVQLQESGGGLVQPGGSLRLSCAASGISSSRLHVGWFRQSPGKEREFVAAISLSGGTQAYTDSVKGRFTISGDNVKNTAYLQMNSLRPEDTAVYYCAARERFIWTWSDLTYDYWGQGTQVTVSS
Response: 1.45
--
binder: anti-IL-12Rβ2 VHH clone 20358 (VHH, not shown: small tags and cut ends, tested as periplasmic extract; also called 3CAH34) VHH: QVQLQESGGGSVQPGGSLRLSCGASGFTFSSFGMHWFRQAPGKGQEWAATISSSGGTTYYSDSVKGRFTISRDNAKNTLYLQMNSLKPEDTALYYCARDVTGAVRGQGTQVTVSS
Response: 0.69
--
binder: anti-IL-12Rβ2 VHH clone 20391 (VHH, not shown: small tags and cut ends, tested as periplasmic extract; also called 3CRH93) VHH: QVQLQESGGGLVQAGGSLRLSCAASGRTVDSYAMGWFRQTPGKEREFVAASWGGGSTYYADSVKGRFTISRDNVKNTMYLQMDSLKPEDTAVYYCAAGPTYYSGPINDNWEGRYDSWGQGTQVTVSS
Response: 0.426
--
binder: anti-IL-12Rβ2 VHH clone 20404 (VHH, not shown: small tags and cut ends, tested as periplasmic extract; also called 3CAHS153) VHH: QVQLQESGGGLVQAGGSLRLSCAASGRTFSSYAMGWFRQVPGKERDFVAAVSWGGLSTYYADSVEGRFTISRDNAKNTVFLQMNSLKPEDTAVYYCAADRAYEGLGYGEYEYWGQGTQVTVSS
Response: 0.163
